studySystem: human FXR (Homo sapiens, UniProt Q96RI1)
Sequence (Q96RI1 with tags, fused parts or gaps limits assumed): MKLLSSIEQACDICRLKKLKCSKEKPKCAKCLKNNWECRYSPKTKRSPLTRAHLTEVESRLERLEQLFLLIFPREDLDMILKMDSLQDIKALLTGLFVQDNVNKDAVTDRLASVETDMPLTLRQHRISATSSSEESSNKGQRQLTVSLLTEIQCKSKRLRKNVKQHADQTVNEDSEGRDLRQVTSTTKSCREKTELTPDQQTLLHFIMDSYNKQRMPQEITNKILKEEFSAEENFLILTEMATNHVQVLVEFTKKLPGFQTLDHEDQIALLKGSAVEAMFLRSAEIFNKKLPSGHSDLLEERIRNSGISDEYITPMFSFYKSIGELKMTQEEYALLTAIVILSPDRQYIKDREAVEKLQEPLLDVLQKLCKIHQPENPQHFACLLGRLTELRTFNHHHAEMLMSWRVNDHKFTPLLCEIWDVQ
experimentalProtocol: FXR-bla reporter gene assay, agonist mode (qHTS)
pEC50: −log10 of the molar value.
# pEC50 per entry

{"molecule": "COC(=O)C1=C(C)NC(C)=C(C(=O)OCCN2CCN(C(c3ccccc3)c3ccccc3)CC2)C1c1cccc([N+](=O)[O-])c1 (stereo not shown) [Manidipine]", "pEC50": 5.16}
{"molecule": "CCOc1ccc2nc3cc(N)ccc3c(N)c2c1 [Ethacridine]", "pEC50": 4.67}
{"molecule": "CCOC(=O)C1=C(C)NC(C)=C(C(=O)OCC)C1c1ccccc1/C=C/C(=O)OC(C)(C)C [Lacidipine]", "pEC50": 4.63}
{"molecule": "Nc1c2ccccc2nc2ccccc12 [9-Aminoacridine]", "pEC50": 4.95}

###

studySystem: human FXR (Homo sapiens, UniProt Q96RI1)
experimentalProtocol: FXR-bla reporter gene assay, antagonist mode (CDCA-induced transactivation)
runParameters: read-out: FXR antagonist mode IC50

{"compound": "O=C(Nc1ccccc1)c1ccccc1SSc1ccccc1C(=O)Nc1ccccc1 [DTBBA, 2,2-Dithiobisbenzanilide]", "studySystem": "human FXR (Homo sapiens, UniProt Q96RI1)", "IC50": "18 µM"}

###

studySystem: UniProt Q96RI1
experimentalProtocol: FXR-bla reporter gene assay, agonist mode (qHTS)
runParameters: Table S1, primary screening
propertyLabel: FXR agonist mode EC50

{"compound": "COC1=CC(=O)C[C@@H](C)[C@]12Oc1c(Cl)c(OC)cc(OC)c1C2=O [Griseofulvin]", "studySystem": "UniProt Q96RI1", "propertyLabel": "FXR agonist mode EC50", "measurement": "Inactive"}
{"compound": "CCC[S+]([O-])c1ccc2[nH]c(NC(=O)OC)nc2c1 (stereo not shown) [Albendazole oxide]", "studySystem": "UniProt Q96RI1", "propertyLabel": "FXR agonist mode EC50", "measurement": "Inactive"}
{"compound": "COC(=O)C1=C(C)NC(C)=C(C(=O)OCC(C)C)C1c1ccccc1[N+](=O)[O-] (stereo not shown) [Nisoldipine]", "studySystem": "UniProt Q96RI1", "propertyLabel": "FXR agonist mode EC50", "measurement": "Inactive"}
{"compound": "COC(=O)C1=C(C)NC(C)=C(C(=O)OC2CCCN(Cc3ccccc3)C2)C1c1cccc([N+](=O)[O-])c1 (stereo not shown) [Benidipine]", "studySystem": "UniProt Q96RI1", "propertyLabel": "FXR agonist mode EC50", "measurement": "Inactive"}
{"compound": "CCCCc1ccc2[nH]c(NC(=O)OC)nc2c1 [Parbendazole]", "studySystem": "UniProt Q96RI1", "propertyLabel": "FXR agonist mode EC50", "measurement": "Inactive"}
{"compound": "Cc1c(F)c(F)c(COC(=O)[C@@H]2[C@H](/C=C(\\Cl)C(F)(F)F)C2(C)C)c(F)c1F (racemic) [Tefluthrin]", "studySystem": "UniProt Q96RI1", "propertyLabel": "FXR agonist mode EC50", "measurement": "Inactive"}
{"compound": "CCCCNC(=O)n1c(NC(=O)OC)nc2ccccc21 [Benomyl]", "studySystem": "UniProt Q96RI1", "propertyLabel": "FXR agonist mode EC50", "measurement": "Inactive"}
{"compound": "CC(C)C[C@H](NC(=O)[C@H](Cc1ccccc1)NC(=O)c1cnccn1)B(O)O [Bortezomib]", "studySystem": "UniProt Q96RI1", "propertyLabel": "FXR agonist mode EC50", "measurement": "Inactive"}
{"compound": "O=c1c(-c2ccc(O)cc2)coc2cc(O)cc(O)c12 [Genistein]", "studySystem": "UniProt Q96RI1", "propertyLabel": "FXR agonist mode EC50", "measurement": "Inactive"}
{"compound": "CC(C)[C@H](Nc1ccc(C(F)(F)F)cc1Cl)C(=O)OC(C#N)c1cccc(Oc2ccccc2)c1 (stereo partly shown) [Fluvalinate]", "studySystem": "UniProt Q96RI1", "propertyLabel": "FXR agonist mode EC50", "measurement": "Inactive"}

Recorded values, source paper PMC4894417.
